Data provenance is the supplement of paper PMC10338343.

Tested on: MILI (PIWIL2) piRISC loaded with piRNA #1 (26 nt);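 also: 1 nM active piRISC with 0.1 nM target library at 33 °C single turnover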
run_description: pre-steady-state target cleavage rate (min^-1); guide: piRNA #1 5'p-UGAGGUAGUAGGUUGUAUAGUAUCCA; MIWI and MILI are mouse PIWI proteins and EfPiwi is from a freshwater sponge; tags in brackets are library labels; higher = faster piRNA-guided slicing of the target
particulars: auxiliary factor: 500 nM mouse GTSF1
measure_name: pre-steady-state target cleavage rate
Field format: numeric only.

Worked examples, 2 sequences total:
GGAGAGGAUACUAUACAACCUACUACCUACA: 0.133
GGAGACGAUACAAUACAACCUACUACCACA: 0.204

Exercise: Could you tell me which pre-steady-state target cleavage rate is on file for GGAGACCAUACUAUUCAAGCUACUACCUCA ?
Key: 0.182

Exercise: For GGAGAGGAUACUUUACAACCUACUACCACA then?
Key: 0.152

Exercise: For GGAGACGAUACUAUACAACCUACUACACUCA then?
Key: 0.202

Exercise: For GGAGAGGAUACUAUAGAAGCUACUACCUCA then?
Key: 0.0647

Exercise: For GGAGACCAUACAAUACAACCUACUACCUGA then?
Key: 0.12

Exercise: For GGAGACGAUACUAUACAACCUACUGCCUCA then?
Key: 0.11

Exercise: For GGAGACCUAUGAUUACAACUUACUACCUCA then?
Key: 0.00657

Exercise: For GGAGACGAUACUAUACAACCUAGUACCUCA then?
Key: 0.0648

Exercise: For GGAGAGGAUACUAUACAACGUACUACGUCA then?
Key: 0.0115

Exercise: For GGAGACGAUUGUAUACAACCUACUACCUCA then?
Key: 0.0734

Exercise: For GGAGACCUAUGAAUACAAGCAACUACCUCA then?
Key: 0.00265

Exercise: For GGAGACGAAACUAUACAACCUACUAGCUCA then?
Key: 0.083

Exercise: For GGAGAGGAUACUAUACAACCUACAACCUCA then?
Key: 0.111

Exercise: For GGAGAGGAUACUAUUGAACCUACUACCUCA then?
Key: 0.124

Exercise: For GGAGACCUAACUAUACAAGCUACUUCCUCA then?
Key: 0.144

Exercise: For GGAGACCUAUGAUAACAAGCUAGUACCUCA then?
Key: 0.00508

Exercise: For GGAGACGAUACUAUACAACUCUACUACCUCA then?
Key: 0.00377

Exercise: For GGAGACCUUACUAUACAACGUACUAGCUCA then?
Key: 0.0137
